B1: IKZF1 (parent)
chain: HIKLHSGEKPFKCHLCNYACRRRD

Variants of: B1
Assay: protein stability index of a GFP-peptide fusion (GPS, HEK-293T) (PSI 1-6); higher = more stable;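 note: lentivirally expressed fusions sorted by FACS into six bins by GFP to DsRed ratio, PSI derived from sequencing read proportions per bin multiplied by bin number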
Details: c terminus: a fixed tail appended
I'd be grateful if you could share measured protein stability index for these entries.
API doc: respond with a numeric literal and nothing else, no unit.

Quick one: protein stability index of `R21S` ?
1.99

Quick one: protein stability index of `K9N` ?
1.79

Quick one: protein stability index of `P10G` ?
1.93

Quick one: protein stability index of `L15A` ?
2.28

Quick one: protein stability index of `S6P` ?
2.02

Quick one: protein stability index of `L4D` ?
2.4

Quick one: protein stability index of `K3C` ?
2.56

Quick one: protein stability index of `G7E` ?
2.62

Quick one: protein stability index of `R23F` ?
2.36

Quick one: protein stability index of `L4V` ?
1.31
